- Target Entity: human activated kallikrein enzyme (Homo sapiens)
- Sequence (P03952 391-638 limits assumed): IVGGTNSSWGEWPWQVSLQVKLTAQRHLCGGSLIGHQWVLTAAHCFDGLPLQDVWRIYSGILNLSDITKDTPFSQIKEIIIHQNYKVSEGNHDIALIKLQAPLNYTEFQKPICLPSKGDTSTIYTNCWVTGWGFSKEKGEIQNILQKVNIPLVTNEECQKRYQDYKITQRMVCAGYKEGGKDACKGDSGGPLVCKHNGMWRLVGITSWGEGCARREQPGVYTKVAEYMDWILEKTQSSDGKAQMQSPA
- Sequence (P03952 20-390 partner limits assumed): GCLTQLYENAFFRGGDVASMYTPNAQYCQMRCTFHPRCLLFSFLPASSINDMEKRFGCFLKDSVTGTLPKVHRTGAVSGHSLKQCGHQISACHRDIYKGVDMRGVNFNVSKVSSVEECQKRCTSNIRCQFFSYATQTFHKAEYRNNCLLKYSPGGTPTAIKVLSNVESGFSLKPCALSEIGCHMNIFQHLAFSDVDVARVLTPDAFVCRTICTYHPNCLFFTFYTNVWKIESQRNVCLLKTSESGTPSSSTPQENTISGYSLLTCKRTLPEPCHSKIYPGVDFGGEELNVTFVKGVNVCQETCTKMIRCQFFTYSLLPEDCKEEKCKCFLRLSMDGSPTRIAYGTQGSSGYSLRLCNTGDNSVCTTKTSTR
- Procedure Text: Plasma kallikrein inhibition, fluorogenic PFR-AMC substrate, 500 pM activated kallikrein format
- Type: biochemical
- Conditions Used: 500 pM activated kallikrein, 300 uM PFR-AMC, 30 min preincubation, 10 min reaction; read-out: Primary Dose Response Assay: Average EC50
The following compounds are shown together with reported EC50 values.

>>> df
                                   compound                             target_entity  readout_name          result
0  N#Cc1cc(Cl)sc1[C@H]1C[C@@H]1C(=O)Nc1cc(NCc2cn3cc(C4CC4)ccc3n2)ncn1 (racemic)  human activated kallikrein enzyme (Homo sapiens)          EC50  100 to 1000 nM

Value of EC50 reported for the compound O=C(Nc1cc(NCc2cn3cc(C4CC4)ccc3n2)ccn1)[C@@H]1C[C@]12CCc1ccc(Cl)cc12 (relative stereo) [Example I-272] is 1000 to 6000 nM

Value of EC50 reported for the compound O=C(Nc1cc(NCc2cn3cc(C4CC4)cc(N4CC5(C4)CN(C4CC4)C5)c3n2)ncn1)[C@H]1C[C@@H]1c1cccc(Cl)c1 is 1 to 10 nM

Value of EC50 reported for the compound O=C(Nc1nnc(NCc2cn3cc(C4CC4)ccc3n2)s1)[C@H]1C[C@@H]1c1cccc(Cl)c1 is > 6000 nM

Value of EC50 reported for the compound O=C(Nc1cc(NCc2cn3cc(C4CC4)cc(N4CCN(C5CC5)CC4)c3n2)ccn1)[C@H]1C[C@@H]1c1cccc(Cl)c1 is < 1 nM

Value of EC50 reported for the compound Cc1ccnc([C@H]2C[C@@H]2C(=O)Nc2cc(N[C@H](C)c3cn4cc(C5CC5)cc(N5CC6(COC6)N(C)C5=O)c4n3)nc(C)n2)n1 is < 1 nM
